# Tested on: Escherichia coli
# test_name: Inhibition of multidrug resistance efflux pump in wild-type Escherichia coli AB1157 assessed as concentration required to reduce piperacillin MIC by 4-fold by checkerboard assay
quantity_name: INH

Request: // query INH value for entry N#Cc1c(SCCc2ccccc2)nc(N2CCOCC2)c2c1CCOC2
Response: > 100 µM

Request: # input compound: CC1(C)Cc2c(C#N)c(SCCc3nnn[nH]3)nc(N3CCOCC3)c2CO1 ; wanted: its INH
Response: > 100 µM

Request: GET /values?readout=INH&item= CC1(C)Cc2c(C#N)c(SCCCc3ccccc3)nc(N3CCOCC3)c2CO1
Response: > 100 µM

Request: Entry under review: CC1CN(c2nc(SCCc3ccc(NC(=O)C(C)(C)C)cc3)c(C#N)c3c2COC(C)(C)C3)CC(C)O1 (stereo not drawn) . Reported INH?
Response: > 100 µM

Request: Record request: INH value, item CC1(C)Cc2c(c(N3CCOCC3)nc(SCCc3ccccc3)c2C(N)=O)CO1
Response: > 100 µM

Request: Request the reported INH associated with CC1(C)Cc2c(c(N3CCOCC3)nc(SCCc3ccccc3)c2C(=N)NO)CO1
Response: > 100 µM

Request: Given CC1(C)Cc2c(C#N)c(SCCc3ccc(S(=O)(=O)O)cc3)nc(N3CCOCC3)c2CO1 , state its recorded INH.
Response: > 100 µM

Request: I would be grateful if you could share the reported INH for CC1(C)Cc2c(C#N)c(SCc3ccccc3)nc(N3CCOCC3)c2CO1 .
Response: > 100 µM
